system: MV4-11; assay: Long term proliferation, InCell (Table 3C), MV4-11; assay type: cell-based; settings: Homo sapiens, 264 h; MV4-11, InCell, Day 11; read-out: Day 11 IC50
Please go through the items and note down their IC50.
Answers are plain numbers, in nM.

{"smilesRepresentation": "O=C(Nc1ccc(-c2cc3c(N4CCOCC4)ncnc3[nH]2)cc1)Nc1cc(-c2cccnc2)n[nH]1", "measureUnit": "nM", "IC50": 430}

Please turn your attention to the following entry.
Sample O=C(Nc1ccc(-c2cc3c(N4CCOCC4)ncnc3[nH]2)cc1)Nc1cc(-c2ccncc2)no1 ; IC50 observed: 280

The measurements presented in this section are drawn from patent US20240140953A1.
